Provide the reported half-life at 10 μM of each item.
Assay: Hepatocyte stability assay (human)
Type: in vitro ADME
Conditions: human, cryopreserved hepatocytes, 10 μM compound, 60 min, read-out: T½
Quick reminder: number only, in h, skip the unit.

For the compound C=C(CC(=O)OC1(c2ccc(C(C)(F)F)cc2)CCC1)C(=O)O , what half-life at 10 μM is on record? 7.45

Quick one: C=C(CC(=O)OC1(c2ccc(C(F)(F)F)cc2)CS(=O)(=O)C1)C(=O)O 0.25

Quick one: C=C(CC(=O)OC1(c2ccc(C(F)F)cc2)CCC1)C(=O)O 7.45

Quick one: C=C(CC(=O)OC1(c2ccc(C(F)(F)F)cc2)CC2(CCC2)C1)C(=O)O 1.43

Quick one: C=C(CC(=O)OC1(c2ccc(C(F)(F)F)s2)CCC1)C(=O)O 1.53

Quick one: C=C(CC(=O)OC1(c2ccc(S(F)(F)(F)(F)F)cc2)CCC1)C(=O)O 3.63
